Reference for the values: patent US20250296984A1

Target: T1, US28 of HCMV strain DB fused to a C-terminal 6His tag (human cytomegalovirus (HCMV) strain DB, UniProt P69332 1-354)
T1 chain: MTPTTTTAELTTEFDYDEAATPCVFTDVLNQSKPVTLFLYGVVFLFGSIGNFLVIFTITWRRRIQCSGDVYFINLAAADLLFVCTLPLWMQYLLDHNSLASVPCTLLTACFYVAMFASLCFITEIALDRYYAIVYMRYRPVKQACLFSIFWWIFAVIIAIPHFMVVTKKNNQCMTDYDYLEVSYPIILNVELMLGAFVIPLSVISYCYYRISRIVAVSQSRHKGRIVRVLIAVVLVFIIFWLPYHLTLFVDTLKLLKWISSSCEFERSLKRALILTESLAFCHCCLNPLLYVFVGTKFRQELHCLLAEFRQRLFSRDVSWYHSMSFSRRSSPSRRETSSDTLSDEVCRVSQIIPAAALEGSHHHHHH
Assay: flow cytometry, CHO-US28 against control CHO cells
READOUT TYPE: binding specificity comparative to the specificity displayed by VUN100 (fold)

{"columns": ["BINDER", "RECORDED NUMBER"],
 "data": [
  ["US28-14-4E4-1E8 (antibody, mouse IgG1, kappa, V domains shown) VH: EVKLVESGGDLVKPGGSLKLSCAASGFTFSSYAMSWVRQTPEKRLEWVASISSGGRTYYPDSVKGRFTISRDNARNILYLQMSSLRSEDTAIYYCARGGTRHSYGNGFDYWGQGTTLTVSS VL: QIVLSQSPTIMSASPGEKVTMTCSASSSVSYMHWYQQKSGTSPKRWIYDSSKLASGVPARFSGSGSGTSYSLTISSMEAEDAATYYCQQWTSNPPITFGAGTKLELKR", 4.6]
]}
